experiment: total protein half-life in vivo (active degradation + dilution); higher = more stable protein; conditions: E. coli NCM3722 delta-lon; growth: N-lim chemostat; doubling time 6 h
Give measured total protein half-life in vivo for each item. Keep answers brief.
Your reply should be a number followed by the unit it is expressed in.

A selection of reference data follows.
Monomer sequence	Measurement label	Endpoint value
MALLDFFLSRKKNTANIAKERLQIIVAERRRSDAEPHYLPQLRKDILEVICKYVQIDPEMVTVQLEQKDGDISILELNVTLPEAEELK [P0A734]	total protein half-life in vivo	3.79 h
MKDKVYKRPVSILVVIYAQDTKRVLMLQRRDDPDFWQSVTGSVEEGETAPQAAMREVKEEVTIDVVAEQLTLIDCQRTVEFEIFSHLRHRYAPGVTRNTESWFCLALPHERQIVFTEHLAYKWLDAPAAAALTKSWSNRQAIEQFVINAA [P0AFC0]	total protein half-life in vivo	3.07 h
MSITLSDSAAARVNTFLANRGKGFGLRLGVRTSGCSGMAYVLEFVDEPTPEDIVFEDKGVKVVVDGKSLQFLDGTQLDFVKEGLNEGFKFTNPNVKDECGCGESFHV [P0AAC8]	total protein half-life in vivo	2.06 h

Query sequence follows.
Field total protein half-life in vivo (entry MRLDKFIAQQLGVSRAIAGREIRGNRVTVDGEIVRNAAFKLLPEHDVAYDGNPLAQQHGPRYFMLNKPQGYVCSTDDPDHPTVLYFLDEPVAWKLHAAGRLDIDTTGLVLMTDDGQWSHRITSPRHHCEKTYLVTLESPVADDTAEQFAKGVQLHNEKDLTKPAVLEVITPTQVRLTISEGRYHQVKRMFAAVGNHVVELHRERIGGITLDADLAPGEYRPLTEEEIASVV [P0AA43] ) reads 4.65 h
